- TARGET_SYSTEM: T1, human MSLN-R3-his protein (human, UniProt Q13421 487-598)
- T1 construct: Self-made in HEK293E cells; also called human MSLN-R3 protein; hMSLN-R3-his; not shown: His tag
- T1 sequence (Q13421 495-606): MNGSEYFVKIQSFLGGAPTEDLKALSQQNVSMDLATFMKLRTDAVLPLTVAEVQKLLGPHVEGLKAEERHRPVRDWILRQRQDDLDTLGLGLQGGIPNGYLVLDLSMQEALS
- ASSAY_NAME: ELISA on coated antigen, antibody 0.1 nM
REPORTED_ENDPOINT: OD450 (OD450)
# number only, unit OD450 dropped from output

[[record]]
binder = "S009-F2.21.4 (antibody, human IgG1, kappa, V domains shown, Human-murine chimeric antibody: murine VH/VL on human IgG1 heavy and kappa light constant regions) VH: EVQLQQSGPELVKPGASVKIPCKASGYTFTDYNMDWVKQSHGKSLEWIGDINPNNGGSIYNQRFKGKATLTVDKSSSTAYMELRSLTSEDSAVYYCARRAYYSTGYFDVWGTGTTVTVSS VL: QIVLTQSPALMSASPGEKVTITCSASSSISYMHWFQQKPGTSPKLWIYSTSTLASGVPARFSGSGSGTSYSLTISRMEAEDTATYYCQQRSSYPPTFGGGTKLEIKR"
number = 0.05

[[record]]
binder = "S009-F2.38.12 (antibody, human IgG1, kappa, V domains shown, Human-murine chimeric antibody: murine VH/VL on human IgG1 heavy and kappa light constant regions) VH: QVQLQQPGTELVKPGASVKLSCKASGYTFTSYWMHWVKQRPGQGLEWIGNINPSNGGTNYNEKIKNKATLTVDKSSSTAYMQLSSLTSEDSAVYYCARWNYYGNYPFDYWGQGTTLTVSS VL: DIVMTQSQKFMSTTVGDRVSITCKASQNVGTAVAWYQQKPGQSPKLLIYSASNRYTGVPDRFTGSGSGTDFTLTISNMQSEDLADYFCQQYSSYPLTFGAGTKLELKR"
number = 0.05


Query binder follows.
Which OD450 is listed for S009-F2.47.1 (antibody, human IgG1, kappa, V domains shown, Human-murine chimeric antibody: murine VH/VL on human IgG1 heavy and kappa light constant regions) VH: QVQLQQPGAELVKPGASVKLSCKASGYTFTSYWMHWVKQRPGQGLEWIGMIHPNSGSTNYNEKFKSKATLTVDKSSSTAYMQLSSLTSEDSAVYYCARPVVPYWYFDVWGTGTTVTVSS VL: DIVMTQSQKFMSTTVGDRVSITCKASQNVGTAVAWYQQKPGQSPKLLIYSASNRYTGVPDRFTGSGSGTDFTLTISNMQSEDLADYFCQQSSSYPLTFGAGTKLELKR ?
0.05

// provenance: patent US20250250357A1
